System: existing sprouts on post-dormant potatoes with peeps and sprouts extant
assay.summary: Comparison of sprout suppressing chemicals applied by thermofogging (Example VII)
Type: in vivo
run.parameters: newly emerged sprouts and peeps, generally less than a month; thermofogging at comparable dosages
observable: Burn “new”

CCCCCCCCCCCCO: −
Cc1ccc(C)c2ccccc12: +
CCCCCCCCO: +++
CCCCCCCCCCO: ++

Task: Output Burn “new” of CCCCCCO
Result: ++

Task: Output Burn “new” of CCCCCCCCCO
Result: +++

Task: Output Burn “new” of CCCCCOC(C)=O [AmylAcetate, amyl acetate]
Result: ++
